Numbers sourced from patent US20210246204A1.

Biological target: T1, histidine-tagged human Siglec-7 (NovoProtein) (human, UniProt Q9Y286 19-353)
T1 construct: Bought protein; also called recombinant human Siglec-7; recombinant Siglec-7; not shown: histidine tag
T1 sequence (Q9Y286 19-353 limits assumed): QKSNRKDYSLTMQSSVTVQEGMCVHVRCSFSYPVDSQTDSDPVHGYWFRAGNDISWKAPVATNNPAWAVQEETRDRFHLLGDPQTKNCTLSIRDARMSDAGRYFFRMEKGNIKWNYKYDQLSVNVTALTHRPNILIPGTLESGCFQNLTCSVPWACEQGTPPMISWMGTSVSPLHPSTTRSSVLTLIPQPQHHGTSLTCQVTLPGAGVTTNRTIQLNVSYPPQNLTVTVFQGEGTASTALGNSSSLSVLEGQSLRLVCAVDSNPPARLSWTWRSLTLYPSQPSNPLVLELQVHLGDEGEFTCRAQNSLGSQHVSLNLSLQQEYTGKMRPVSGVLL
Test: BLI (ForteBio), antibody captured
Listed next: entries and their corresponding koff.

BINDER	koff, s⁻¹
S7AB-H8 (antibody, V domains shown, also called parental humanized antibody) VH: QVQLVQSGAEVKKPGASVKISCKASGYAFTNCWMNWVRQAPGQGLEWIGRIFPGNGHTNYAQKFQGRATLTEDTSTSTAYMELSSLRSEDTAVYYCARDYSDYYFDYWGQGTLVTVSS VL: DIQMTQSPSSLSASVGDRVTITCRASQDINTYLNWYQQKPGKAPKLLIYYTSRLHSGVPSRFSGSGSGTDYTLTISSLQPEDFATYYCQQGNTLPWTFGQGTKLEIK	0.000125
S7AB-H11 (antibody, V domains shown) VH: QVQLVQSGAEVKKPGASVKISCKASGYAFTNCWMNWVRQAPGQGLEWIGRIFPGNGHTNYAQKFQGRATLTEDTSTSTAYMELSSLRSEDTAVYYCARDYSDYYFDYWGQGTLLTVSS VL: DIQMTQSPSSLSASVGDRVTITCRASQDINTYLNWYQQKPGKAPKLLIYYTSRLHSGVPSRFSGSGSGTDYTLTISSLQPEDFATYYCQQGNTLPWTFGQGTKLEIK	0.000172
S7AB (antibody, V domains shown, Parental mouse antibody; also called S7-10B5.1; mouse anti-human Siglec-7 antibody) VH: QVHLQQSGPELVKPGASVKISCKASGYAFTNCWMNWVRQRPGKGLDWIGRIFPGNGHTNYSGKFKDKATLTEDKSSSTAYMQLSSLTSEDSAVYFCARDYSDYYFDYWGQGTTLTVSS VL: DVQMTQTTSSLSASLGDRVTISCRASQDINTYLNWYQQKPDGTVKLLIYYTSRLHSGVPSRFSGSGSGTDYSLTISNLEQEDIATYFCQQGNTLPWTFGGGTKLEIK	0.000242
S7AB-H9 (antibody, V domains shown) VH: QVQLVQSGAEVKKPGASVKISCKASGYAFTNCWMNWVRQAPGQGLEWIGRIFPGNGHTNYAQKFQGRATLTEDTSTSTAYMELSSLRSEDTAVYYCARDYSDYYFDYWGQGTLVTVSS VL: DVQMTQSPSSLSASVGDRVTITCRASQDINTYLNWYQQKPGKAPKLLIYYTSRLHSGVPSRFSGSGSGTDYTLTISSLQPEDFATYYCQQGNTLPWTFGQGTKLEIK	0.000112
